Numbers sourced from ChEMBL document CHEMBL1961873.

measurementTarget: Serine/threonine-protein kinase 4 (Homo sapiens) (UniProt Q13043);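 also: mean inhibition of MST1, reported as part of the GSK PKIS dataset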
Sequence (Q13043 whole entry): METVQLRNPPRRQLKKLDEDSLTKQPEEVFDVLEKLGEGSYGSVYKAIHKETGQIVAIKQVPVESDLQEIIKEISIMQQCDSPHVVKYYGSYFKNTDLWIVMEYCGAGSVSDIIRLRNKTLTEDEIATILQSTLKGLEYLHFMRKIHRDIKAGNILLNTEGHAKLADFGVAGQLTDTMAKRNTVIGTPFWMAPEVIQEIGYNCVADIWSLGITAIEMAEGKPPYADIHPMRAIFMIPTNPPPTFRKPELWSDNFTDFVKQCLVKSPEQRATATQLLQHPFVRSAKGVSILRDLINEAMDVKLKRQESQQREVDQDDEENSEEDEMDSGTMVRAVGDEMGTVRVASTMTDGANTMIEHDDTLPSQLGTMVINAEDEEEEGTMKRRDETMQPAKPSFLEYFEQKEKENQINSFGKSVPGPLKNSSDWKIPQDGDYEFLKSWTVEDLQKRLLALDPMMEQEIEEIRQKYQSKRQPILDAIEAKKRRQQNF
statedConditions: at 0.1 µM
propertyLabel: inhibition
Put your answer as a value accompanied by its unit after it.

Param item = `NS(=O)(=O)c1cccc(N/C=C2\C(=O)Nc3ccccc32)c1` ; retrieve measured inhibition.
7.24%

Then this molecule: `CC1(C)CC(n2cnc(-c3ccc(F)cc3)c2-c2ccnc(N)n2)CC(C)(C)N1`
-3.13%

Then this molecule: CC1=C(C(=O)Nc2ccc3[nH]ncc3c2)C(c2ccc(F)cc2)N=C(c2ccc(C(F)(F)F)nc2)N1 (stereo not given)
2.29%

Then this molecule: `Cc1ccc(-c2cc3c(NC(=O)C4CC4)ncnc3o2)cc1`
6.14%

Then this molecule: `CS(=O)(=O)CCNCc1ccoc1-c1ccc2ncnc(Nc3ccc(OCc4ccccc4)cc3)c2c1`
1.95%

----------
Measured inhibition by item
measurementTarget: Serine/threonine-protein kinase 3 (Homo sapiens) (UniProt Q13188);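 also: each value is the mean inhibition of MST2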
Sequence (Q13188 whole entry): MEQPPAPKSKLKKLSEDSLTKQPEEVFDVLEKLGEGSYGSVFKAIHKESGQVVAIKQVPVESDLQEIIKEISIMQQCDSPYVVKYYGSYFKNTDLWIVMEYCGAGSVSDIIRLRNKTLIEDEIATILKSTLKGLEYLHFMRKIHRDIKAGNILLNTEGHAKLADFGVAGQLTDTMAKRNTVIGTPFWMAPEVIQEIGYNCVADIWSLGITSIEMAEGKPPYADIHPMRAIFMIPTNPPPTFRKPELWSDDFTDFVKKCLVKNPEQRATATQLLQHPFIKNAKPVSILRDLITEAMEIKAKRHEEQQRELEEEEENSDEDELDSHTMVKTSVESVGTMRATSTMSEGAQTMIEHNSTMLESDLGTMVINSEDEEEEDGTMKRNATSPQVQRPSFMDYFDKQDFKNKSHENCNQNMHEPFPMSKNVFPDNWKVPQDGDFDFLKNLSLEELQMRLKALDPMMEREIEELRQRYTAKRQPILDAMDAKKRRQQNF
statedConditions: at 1 µM

Recorded inhibition, per entry:
Param item = `NS(=O)(=O)c1ccc(N/N=C2\C(=O)Nc3cccc(CCc4ccncc4)c32)cc1` ; retrieve measured inhibition.
29.8%

Then this compound: `CS(=O)(=O)CCNCc1ccc(-c2ccc3ncnc(Nc4ccc(OCc5ccccc5)cc4)c3c2)o1`
3.74%

Then this compound: `N#Cc1cccc(Nc2ncc(-c3ccccc3)o2)c1`
5.23%

Then this compound: `O=C(O[C@H]1CN[C@H](C#Cc2cc3ncnc(Nc4ccc(OCc5cccc(F)c5)c(Cl)c4)c3s2)C1)N1CCOCC1`
6.61%

Then this compound: `COc1c(C(N)=O)cc(-c2ccc(Cl)cc2)cc1-c1ccc(S(N)(=O)=O)cc1`
4.15%

---
Param item = `CCS(=O)(=O)c1ccc(OC)c(Nc2ncc(-c3cccc(F)c3)o2)c1` ; retrieve measured inhibition.
8.4%

Then this compound: `CCS(=O)(=O)c1ccc(OC)c(Nc2ncc(-c3cccc(C(C)=O)c3)o2)c1`
12.6%

Then this compound: `COC(=O)Nc1nc2cc(Oc3ccc(NC(=O)Nc4ccccc4)cc3)ccc2[nH]1`
6.48%

Then this compound: `O=C(O[C@H]1CN[C@H](C#Cc2cc3ncnc(Nc4ccc5c(cnn5Cc5ccccc5)c4)c3s2)C1)N1CCOCC1`
5.49%

----------
measurementTarget: Homeodomain-interacting protein kinase 4 (Homo sapiens) (UniProt Q8NE63);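 also: values are mean percent inhibition of HIPK4 from the GSK PKIS kinase screen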
Sequence (whole entry): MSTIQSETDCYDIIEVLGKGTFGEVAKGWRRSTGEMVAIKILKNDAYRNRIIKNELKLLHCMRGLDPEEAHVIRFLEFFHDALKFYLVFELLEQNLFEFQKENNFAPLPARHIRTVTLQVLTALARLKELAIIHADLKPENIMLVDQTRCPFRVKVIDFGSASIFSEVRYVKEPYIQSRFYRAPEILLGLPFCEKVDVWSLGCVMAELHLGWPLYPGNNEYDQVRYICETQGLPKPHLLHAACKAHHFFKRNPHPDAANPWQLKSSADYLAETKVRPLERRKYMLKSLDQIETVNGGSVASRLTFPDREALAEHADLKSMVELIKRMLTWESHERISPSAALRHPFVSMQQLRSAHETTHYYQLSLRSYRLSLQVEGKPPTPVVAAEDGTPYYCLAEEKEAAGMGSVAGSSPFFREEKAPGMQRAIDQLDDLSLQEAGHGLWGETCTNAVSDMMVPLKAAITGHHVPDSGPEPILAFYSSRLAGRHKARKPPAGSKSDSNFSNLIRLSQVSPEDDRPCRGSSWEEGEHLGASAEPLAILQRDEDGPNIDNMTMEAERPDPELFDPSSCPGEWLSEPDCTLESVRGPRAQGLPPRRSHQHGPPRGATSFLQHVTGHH
statedConditions: at 1 µM
Threshold check on inhibition: at or above 5% gives criterion met, strictly below gives criterion not met.

Use the examples below as a reference point.
Tell me whether inhibition is at least 5% here: `CN1CCC(n2cnc(-c3ccc(F)cc3)c2-c2ccnc(NCCO)n2)CC1`
criterion not met

Then this compound: `N#Cc1cccc(Nc2ncc(-c3ccccc3)o2)c1`
criterion met

Then this compound: `NS(=O)(=O)c1cccc(N/C=C2\C(=O)Nc3ccccc32)c1`
criterion not met

Then this compound: `COc1ccc(-c2nn3ncccc3c2-c2ccnc(Nc3ccc(F)c(F)c3)n2)cc1`
criterion not met

Then this compound: `FC(F)(F)CNc1nccc(-c2cnn3ncccc23)n1`
criterion not met

---
Tell me whether inhibition is at least 5% here: `c1cnn2ncc(-c3ccnc(NCCCN4CCOCC4)n3)c2c1`
criterion not met

Then this compound: `NS(=O)(=O)c1ccc(N/N=C2\C(=O)Nc3cccc(CCc4ccncc4)c32)cc1`
criterion not met

Then this compound: `COc1ccc(Nc2ncc(-c3ccccc3)o2)cc1OC`
criterion met
